Data provenance: ChEMBL document CHEMBL1134275

test system: Klebsiella aerogenes; assay: Inhibitory activity against p9- (derivative of ATCC )13048 strain(Enterobacter aerogenes) in the presence of ciprofloxacin and fluoroquinolone at 16 ug/mL; assay type: functional
readout.kind: MIC

// worked examples, MIC included
input: State the recorded MIC for this entry: CCN(CC)CCSc1cc(C)nc2c(C)c3nc(C)cc(SCCN(CC)CC)c3cc12
output: 0.5 µg/mL

input: Note, next up: Cc1cc(OCCN(C(C)C)C(C)C)c2cc3c(OCCN(C(C)C)C(C)C)cc(C)nc3c(C)c2n1
output: 0.5 µg/mL

input: Note, next up: Cc1cc(OCCN2CCOCC2)c2cc3c(OCCN4CCOCC4)cc(C)nc3c(C)c2n1
output: 0.5 µg/mL

input: Note, next up: Cc1cc(SCCN2CCCCC2)c2cc3c(SCCN4CCCCC4)cc(C)nc3c(C)c2n1
output: 0.5 µg/mL

input: Note, next up: Cc1cc(SCCN(C)C)c2cc3c(SCCN(C)C)cc(C)nc3c(C)c2n1
output: 0.25 µg/mL

input: Note, next up: Cc1cc(SCCn2cccc2)c2cc3c(SCCn4cccc4)cc(C)nc3c(C)c2n1
output: 0.1 µg/mL

input: Note, next up: Cc1cc(OCCN(C)C)c2cc3c(OCCN(C)C)cc(C)nc3c(C)c2n1
output: 0.25 µg/mL

input: Note, next up: Cc1cc(OCCCN(C)C)c2cc3c(OCCCN(C)C)cc(C)nc3c(C)c2n1
output: 0.05 µg/mL

More entries:
input: State the recorded MIC for this entry: Cc1cc(OCCN2CCCCC2)c2cc3c(OCCN4CCCCC4)cc(C)nc3c(C)c2n1
output: 0.25 µg/mL

* * *

Task for the reader: assign each of the following compounds its reported MIC.
tested on: Klebsiella aerogenes; experiment: Inhibitory activity against p9- (derivative of ATCC )13048 strain(Enterobacter aerogenes) in the presence of Norfloxacin and fluoroquinolone at 16 ug/mL; format: functional
Give bare numbers, in µg/mL.

// worked examples, MIC included
input: State the recorded MIC for this entry: Cc1cc(SCCN(C)C)c2cc3c(SCCN(C)C)cc(C)nc3c(C)c2n1
output: 0.25

input: Note, next up: Cc1cc(SCCn2cccc2)c2cc3c(SCCn4cccc4)cc(C)nc3c(C)c2n1
output: 0.5

input: Note, next up: Cc1cc(OCCCN(C)C)c2cc3c(OCCCN(C)C)cc(C)nc3c(C)c2n1
output: 1

input: Note, next up: Cc1cc(OCCN(C)C)c2cc3c(OCCN(C)C)cc(C)nc3c(C)c2n1
output: 1

input: Note, next up: Cc1cc(SCCN2CCCCC2)c2cc3c(SCCN4CCCCC4)cc(C)nc3c(C)c2n1
output: 2

input: Note, next up: CCN(CC)CCSc1cc(C)nc2c(C)c3nc(C)cc(SCCN(CC)CC)c3cc12
output: 1

input: Note, next up: CCn1cc(C(=O)O)c(=O)c2cc(F)c(N3CCNCC3)cc21
output: 128

input: Note, next up: Cc1cc(OCCN2CCOCC2)c2cc3c(OCCN4CCOCC4)cc(C)nc3c(C)c2n1
output: 2

Report MIC for each item below.
1. Cc1cc(OCCN2CCCCC2)c2cc3c(OCCN4CCCCC4)cc(C)nc3c(C)c2n1
2. O=C(O)c1cn(C2CC2)c2cc(N3CCNCC3)c(F)cc2c1=O

output:
[1, 32]
